assay: NCI Yeast Anticancer Drug Screen. Data for the rad50 strain (AID 155); conditions: S. cerevisiae rad50 strain growth inhibition; at 100.0 µM
This is part of a sample that, as a whole, favours compounds with a hit. Of some 79,000 tested, about 15% had one in any assay. The source made the active and inactive calls. No stated cut-off is given here; in the data, active means growth inhibition above about 70%; inactive means the rest.
Outcomes: active, inactive

>>> class_label("COc1cc(C2c3cc4c(cc3OC(NNc3ccccc3)C2C)OCO4)cc(OC)c1OC (configuration not stated)")
"active"
>>> class_label("Cc1ccc2[nH]c3c(C)c4cc[n+](C)cc4c(C)c3c2c1")
"active"
>>> class_label("COc1cc(C2C3=C(COC3=O)Oc3cc4c(cc32)OCO4)ccc1O (configuration not stated)")
"active"
>>> class_label("CN(C)Cc1cc(N=Nc2ccc(Cl)cc2)cc(CN(C)C)c1O")
"inactive"
>>> class_label("CC(=O)OC1CCC2(C)C(=CCC3C4CCC5(OC6CC(C)CN(C(C)=O)C6C5C)C(C)=C4C(=O)C32)C1 (configuration not stated)")
"active"
>>> class_label("O=C(N=Nc1cc(Cl)ccc1Cl)NNc1cc(Cl)ccc1Cl")
"inactive"
>>> class_label("CSC(=S)Nc1cc(C)ccn1")
"active"
>>> class_label("CC(C)=CC(=O)O[C@@H]1CC(C)(C)CC2C3=CCC4[C@]56CC[C@](O)(OC5)C(C)(C)C6CC[C@@]4(C)C3(C)CC[C@]21C(=O)O (some centres not stated)")
"active"
>>> class_label("Cc1ccc(-n2cc(-c3ccc(Cl)cc3)c(C#N)c2N)cc1")
"inactive"
>>> class_label("BrCc1cccc2ccc3cccc(CBr)c3c12")
"inactive"
>>> class_label("CCOP(=O)(OCC)C(Cc1ccccc1)N=C(c1ccccc1)c1ccccc1 (configuration not stated)")
"active"
>>> class_label("C(=C\\c1ccccc1)/COc1ccccc1C(N1CCOCC1)n1nc2ccccc2n1 (configuration not stated)")
"active"
>>> class_label("COc1ccc(/C=C2\\SC(=S)N(/C=C/c3nc4ccccc4[nH]c3=O)C2=O)cc1OC")
"active"
>>> class_label("CCCCCCCCCCCC1=C(O)C(=O)C=C(O)C1=O")
"active"
>>> class_label("CC(C)(CN1CCCCC1)C(=O)CC(SCCS(=O)(=O)O)c1ccc(Br)cc1 (configuration not stated)")
"inactive"
>>> class_label("Nc1nc(-c2cccnc2)cc(-c2cc(-c3cccnc3)nc(N)n2)n1")
"inactive"
>>> class_label("CC/C(=C(\\c1ccccc1)c1ccc(OCCN(C)C)cc1)c1ccccc1")
"active"
>>> class_label("CN(N=O)N1C(=O)SCC(c2ccccc2)(c2ccccc2)C1=O")
"inactive"
>>> class_label("CCCCCCCCCCCC(=O)N(C)C")
"active"
>>> class_label("Cc1ccc(-c2ccc(Nc3c4ccccc4nc4ccccc34)cc2)cn1")
"active"
>>> class_label("O=C(O)c1ccccc1NC(=S)c1ccccc1")
"active"
>>> class_label("Clc1cccc(C(Nc2nncs2)Nc2nncs2)c1Cl")
"active"
>>> class_label("O=C1CSc2cc([N+](=O)[O-])ccc2N1")
"inactive"
>>> class_label("S=C(N/N=C(/c1ccccc1)c1ccccn1)N1CCCCCC1")
"inactive"
>>> class_label("COC(=O)C1=C(C)NC(C)=C(C(=O)OCCCN2CCC(c3ccccc3)(c3ccccc3)CC2)C1c1cccc([N+](=O)[O-])c1 (configuration not stated)")
"active"
>>> class_label("O=C1C2C=CC1C1C(=O)OC(=O)C21 (configuration not stated)")
"inactive"
>>> class_label("CC(=O)ON1C(=O)c2cccc3cccc(c23)C1=O")
"active"
>>> class_label("CC1OCC2OC(C)OC(C3C4=C(CC(C)(C)CC4=O)OC4=C3C(=O)CC(C)(C)C4)C2O1 (configuration not stated)")
"active"
>>> class_label("O=C(OCC=C1CCCC1)c1cc([N+](=O)[O-])cc([N+](=O)[O-])c1")
"active"
>>> class_label("Cc1cc(CO)c(O)c(CNCc2cc(C)cc(CO)c2O)c1")
"active"
>>> class_label("O=[N+]([O-])c1cccc([N+](=O)[O-])c1S(=O)(=O)c1ccccc1")
"active"
>>> class_label("Cc1ccc(S(=O)(=O)Oc2cc(Cl)c(Cl)cc2Cl)cc1")
"inactive"
>>> class_label("COC1=CC(=O)C2C(C1=O)C(c1ccc(Cl)cc1)[C@@H]2C (some centres not stated)")
"active"
>>> class_label("CC1(C)C(=O)OC(n2cc(F)c(=O)[nH]c2=O)C1=O (configuration not stated)")
"inactive"
>>> class_label("CCN(CC)CC[n+]1ccc2c(C)c3[nH]c4ccc(O)cc4c3c(C)c2c1")
"active"
>>> class_label("O=C1Nc2ccccc2/C1=C/COc1ccccc1")
"active"
>>> class_label("N#CN=Nc1cc(Cl)c(N=NC#N)cc1Cl")
"inactive"
